# reported growth; entries follow
- System: HOP-62 NSCLC
- experimentNotes: NCI-60 one-dose screen, 48 h (100 = growth as untreated, 0 = no growth, -100 = all killed)
- measurementConditions: 10 µM unless noted
About 83,000 compounds went through this panel and 20% of them were active in at least one assay; those are over-represented in the sample as a whole.
The figure you give is taken to be in %; do not add the unit.

Below are worked cases with known answers.
- CCCCC(=O)c1ccco1: 88.7
- O=C1COCCN1c1ccc(Nc2nc(Cl)nc(OCc3cn(Cc4ccccc4)nn3)n2)cc1: 87.5

Then there is this molecule:
query: Look up growth for this molecule: `COc1cc(-c2nc3cc(Cl)c(Cl)cc3[nH]2)ccc1OCC(=O)N=Nc1c(O)[nH]c2ccc([N+](=O)[O-])cc12`
result: 88.7

----------
- Test system: HCT-15 colon
- experimentNotes: NCI-60 one-dose screen, 48 h
- measurementConditions: 10 µM unless noted
About 83,000 compounds went through this panel and 20% of them were active in at least one assay; those are over-represented in the sample as a whole. Active and inactive are the calls of the source. How the source made its calls: active means growth percent below 10; inactive means the rest.
Entry note: the call must match one of T (active), F (inactive)

Solved cases (6 shown):
- O=C1/C(=C/c2ccc(Cl)cc2)COc2ccc(O)c(O)c21: T
- O=C(c1ccc(-c2nc(CSc3nc4ccccc4s3)no2)cc1)N1CCSCC1: F
- O=c1oc2ccccc2cc1C1=NN=C(SCc2ccccc2)SC1: F
- Cn1c(O)c(C=NCCN=Cc2c(O)n(C)c(=O)n(C)c2=O)c(=O)n(C)c1=O: F
- C=C1C(=O)O[C@H]2[C@H]1CC/C(COC(=O)NCc1ccc(Cn3c(=O)sn(CCI)c3=O)cc1)=C\CC[C@@]1(C)O[C@@H]21: F
- c1ccc(CNc2c3ccccc3nc3ccccc23)cc1: F

In the following, a different compound is considered.
query: # fetch the recorded call for `COC(=O)c1cc(-c2ccccc2)[nH]c1N/N=C/c1c(Cl)cccc1Cl` here
result: F

----------
# reported growth; entries follow
- System: LOX IMVI melanoma
- experimentNotes: NCI-60 one-dose screen, 48 h (100 = growth as untreated, 0 = no growth, -100 = all killed)
- measurementConditions: 10 µM unless noted
The panel holds about 83,000 compounds, 20% with a hit somewhere; the sample as a whole holds those more often.
The figure you give is taken to be in %; do not add the unit.

- O=S(=O)(NCCCNc1nccc(-c2c(-c3ccc(F)c(O)c3)nc3occn23)n1)c1ccccc1: 39.6
- CCCCCC(=O)OCC(=O)O[C@@H]1C[C@]2(C(C)C)O[C@@]1(C)[C@@H]1CC[C@@H](C)[C@H]1[C@@H]2OC(=O)/C=C/c1ccccc1: 68.6
- CC(C)(C)n1cc(-c2ccnc(NCCNS(=O)(=O)c3cccc(F)c3)c2)c(-c2ccccc2)n1: 85.1

query: Look up growth for this compound: `Oc1c(Cl)cc(Cl)cc1/C=N/Nc1nnc(N/N=C/c2cc(Cl)cc(Cl)c2O)c2ccccc12`
result: -52.3

query: Now the compound `C#Cc1cccc(Nc2ncnc3ccc(-c4cnc(N)nc4)cc23)c1`
result: 22.2

----------
- Test system: SNB-75 CNS
- experimentNotes: NCI-60 one-dose screen, 48 h (100 = growth as untreated, 0 = no growth, -100 = all killed)
- measurementConditions: 10 µM unless noted
This is part of a sample that, as a whole, favours compounds with a hit. Of some 83,000 tested, about 20% had one in any assay.
# label = Fulfilled if growth >= 30% else Not fulfilled

• CC(C)OC(=O)c1ccc2[nH]c(O)c(C(=Nc3ccc(N(C)C(=O)CN4CCN(C)CC4)cc3)c3ccccc3)c2c1 = Not fulfilled
• COc1ccc(/C=C2\COc3ccc(O)c(O)c3C2=O)cc1 = Fulfilled
• CC(C)c1ccc(COCc2cc(CN3CCCC3)c(O)c3ncccc23)cc1 = Not fulfilled
• Cc1ccccc1NC(=O)c1sc2nc(C)c(C(=O)/C=C/c3ccccc3)cc2c1N = Not fulfilled
• COC(=O)c1ccc2c(c1)C(=O)c1c-2n(CCCN)c(=O)c2cc([N+](=O)[O-])ccc12 = Not fulfilled
• COc1ccc(C2=Nc3c/c(=C\c4c(O)[nH]c5ccc(Cl)cc45)ccc3=N2)cc1 = Fulfilled
• OCCCC1CCN(C(Cc2ccccc2)c2ccccc2)CC1 (centres undefined) = Fulfilled
• N#Cc1c(NC(=O)c2ccccc2)sc2c1CCC(=O)C2 = Not fulfilled

query: Hi team, for `CCCCC[C@@H]1Cc2cc(O)c(C(=O)O)c3c2[C@H](C[C@]2(OC[C@@H](CC(=O)[C@@](C)(CC)C(=O)OC)[C@@H]2C)O3)O1` , is the recorded growth at or above 30%?
result: Fulfilled

query: Now the compound `CCc1ccc(Oc2cn[nH]c2-c2ccc(OCCc3ccc(F)cc3)cc2O)cc1`
result: Fulfilled

query: Now the compound `O=C1/C(=C/c2ccc(Cl)cc2)COc2ccc(O)cc21`
result: Fulfilled

query: Now the compound `COc1cc(-c2csc(NC(=O)c3cc(-n4cnc(C)c4)cc(C(F)(F)F)c3)n2)cc(OC)c1OC`
result: Fulfilled

query: Now the compound `COc1ccc(-c2nc(/C=C3\SC(=NCc4ccccc4)NC3=O)c3ccccn23)cc1`
result: Not fulfilled

query: Now the compound COc1cc2c(c(OC)c1OC)CCC(c1cccc(C(=O)Nc3cccc(Br)c3)c1)O2 (centres undefined)
result: Fulfilled

----------
- System: M14 melanoma
- experimentNotes: NCI-60 one-dose screen, 48 h
- measurementConditions: 10 µM unless noted
The panel holds about 83,000 compounds, 20% with a hit somewhere; the sample as a whole holds those more often. The source made the active and inactive calls. Rule for the calls: active = growth percent below 10; inactive = the rest.
Entry note: the call must match one of active, inactive

Solved cases (3 shown):
* CCN1CCN(c2cc(C(=O)Nc3nc(-c4cc(OC)c(OC)c(OC)c4)cs3)cc(C(F)(F)F)c2)CC1 | inactive
* O=CC1(C2(C=O)c3ccccc3-c3ccccc32)c2ccccc2-c2ccccc21 | active
* N=C(N)c1ccc(-c2ccc(-c3ccc(F)cc3)o2)o1 | active

query: # fetch the recorded call for `CCS/C(Nc1ccccc1)=C(\C#N)C(=O)N/N=C/c1ccc(Cl)cc1Cl` here
result: inactive

query: Now the compound `O=C(c1ccc(-c2nc(CSc3nc4ccccc4s3)no2)cc1)N1CCSCC1`
result: inactive

query: Now the compound `Cc1ccc(-c2nn(-c3ccccc3)cc2C=C2C(=O)ON=C2C(C)C)cc1`
result: inactive

----------
- System: SW-620 colon
- experimentNotes: NCI-60 one-dose screen, 48 h (100 = growth as untreated, 0 = no growth, -100 = all killed)
- measurementConditions: 10 µM unless noted
About 83,000 compounds went through this panel and 20% of them were active in at least one assay; those are over-represented in the sample as a whole.
# reported growth; entries follow
The figure you give is taken to be in %; do not add the unit.

- Cc1cccc(N2CCN(CC(O)COc3ccc(Cl)cc3)CC2)c1 (centres undefined): 103
- O=C(NNc1nccc(Nc2ccc(S(=O)(=O)Nc3ccncc3)cc2)n1)c1ccccc1: 106
- O=C(NNC(=O)c1ccc(-n2cc(-c3ccccc3)nn2)cc1)Nc1ccccc1: 101
- COc1cc2c(c(OC)c1OC)C(=O)CC(c1cccc(NC(=O)c3ccc(Br)cc3)c1)O2 (centres undefined): 25.4
- Cn1cc(-c2nonc2-c2c[nH]c3ccc(Br)cc23)c2cc(Br)ccc21: 55.9
- Cc1ccccc1Cn1cnc2ccc(-c3cc(NC(=O)c4ccc(NC5CCN(C)CC5)cc4)n[nH]3)cc21: 93.1
- COc1ccc(-c2ccc3cnc4sc(-c5ccc(OC)cc5)nc4c3n2)cc1: 112
- Cc1ccc(-n2c(=S)[nH]c3sc4c(c3c2=O)CCC(=O)C4)cc1: 17.8

query: Look up growth for this compound: `Cc1ccc(-c2nc(/C=C3/C(=O)Nc4ccccc43)c3ccccn23)cc1`
result: 64.8

query: Now the compound `COc1cc(-c2nc(SCCC(C)C)nc(Nc3ccccc3Cl)c2C#N)cc(OC)c1OC`
result: 102

query: Now the compound `COc1cc(-c2cc(-c3cccs3)c(C#N)c(N3CCOCC3)n2)cc(OC)c1OC`
result: 4.28

query: Now the compound `CCN(CC)CCNC(=O)c1cn2ncnc(Oc3ccc(NC(=O)Nc4ccc(Cl)c(C(F)(F)F)c4)c(F)c3)c2c1C`
result: -62.1

query: Now the compound `COc1ccc2c(c1)c(-c1noc(C(=O)c3cn(C)c4ccc(Br)cc34)n1)cn2C`
result: 105

query: Now the compound `O=C(CCC(=O)N/N=C/c1ccccc1O)N/N=C/c1ccccc1O`
result: 44.8

----------
- Tested on: SF-268 CNS
- experimentNotes: NCI-60 one-dose screen, 48 h (100 = growth as untreated, 0 = no growth, -100 = all killed)
- measurementConditions: 10 µM unless noted
About 83,000 compounds went through this panel and 20% of them were active in at least one assay; those are over-represented in the sample as a whole.
# reported growth; entries follow
The figure you give is taken to be in %; do not add the unit.

* c1ccc(C2=NN[C@H](c3cn(-c4ccccc4)nc3-c3ccccc3)C2)cc1 | 52
* COc1ccc(C2c3sc4c(F)cccc4c3Oc3nc[nH]c(=O)c32)cc1 (stereo unspecified) | 82
* O=C(O)CNC1=C(Cl)C(=O)c2ccccc2C1=O | 103

query: Look up growth for this compound: `O=S(=O)(NCCNc1nccc(-c2c(-c3cccc(F)c3)nc3occn23)n1)c1ccc(Br)cc1`
result: 90.7

query: Now the compound `Cc1ccc(-c2cc(-c3ccc(Cl)cc3)nc(NC(=O)c3cccnc3)n2)cc1`
result: 97.6

query: Now the compound `CC(C)CCC[C@@H](C)[C@H]1CC[C@H]2[C@@H]3CC=C4C[C@@H](C(C(=O)O)C(=O)O)CC[C@]4(C)[C@H]3CC[C@]12C`
result: -24.6

query: Now the compound `Cn1cc(-c2csc(-c3c[nH]c4ccc(Br)cc34)n2)c2cnccc21`
result: -75.5

query: Now the compound `Clc1ccc(Nc2nnc(COc3ccccc3)c3ccccc23)cc1`
result: 13.2

query: Now the compound `CC(C)c1ccc(COCc2cc(CN3CCCC3)c(O)c3ncccc23)cc1`
result: 8.66

query: Now the compound `COc1ccc(-c2nc3c(c(-c4ccccc4)nn3-c3ccccc3)c(-c3ccc(N4CCOCC4)cc3)c2C#N)cc1`
result: 112

Hello, the source for this data is PubChem BioAssay (NCI), in case you need it.
